Test system: Pseudomonas aeruginosa
Assay: Minimum Inhibitory Concentration (MIC) test, growth inhibition in 96 well plates via optical density
Format: cell-based
Conditions: Pseudomonas aeruginosa; lowest concentration with complete growth inhibition; P. aeruginosa; read-out: MIC in ppm Pseudomonas aeruginosa
readout_kind: MIC

Q) Item under review: `CCOC(=O)CNC1=C/C(=N/c2ccccc2)CC(C)(C)C1` . Reported MIC?
A) > 25 mg/mL

Q) Item under review: CCCC(O)CO (stereo not shown) . Reported MIC?
A) 30 mg/mL

Q) Item under review: `CC1(C)CC(NCC(=O)O)=C/C(=N/c2ccccc2)C1` . Reported MIC?
A) > 30 mg/mL

Q) Item under review: COc1ccc(/N=C2\CC(C)(C)CC3=C2SCC(C(=O)O)N3)cc1OC (stereo not shown) . Reported MIC?
A) > 30 mg/mL
